system-tested: Toll-like receptor 4 (Homo sapiens) (UniProt O00206)
Sequence (O00206 whole entry): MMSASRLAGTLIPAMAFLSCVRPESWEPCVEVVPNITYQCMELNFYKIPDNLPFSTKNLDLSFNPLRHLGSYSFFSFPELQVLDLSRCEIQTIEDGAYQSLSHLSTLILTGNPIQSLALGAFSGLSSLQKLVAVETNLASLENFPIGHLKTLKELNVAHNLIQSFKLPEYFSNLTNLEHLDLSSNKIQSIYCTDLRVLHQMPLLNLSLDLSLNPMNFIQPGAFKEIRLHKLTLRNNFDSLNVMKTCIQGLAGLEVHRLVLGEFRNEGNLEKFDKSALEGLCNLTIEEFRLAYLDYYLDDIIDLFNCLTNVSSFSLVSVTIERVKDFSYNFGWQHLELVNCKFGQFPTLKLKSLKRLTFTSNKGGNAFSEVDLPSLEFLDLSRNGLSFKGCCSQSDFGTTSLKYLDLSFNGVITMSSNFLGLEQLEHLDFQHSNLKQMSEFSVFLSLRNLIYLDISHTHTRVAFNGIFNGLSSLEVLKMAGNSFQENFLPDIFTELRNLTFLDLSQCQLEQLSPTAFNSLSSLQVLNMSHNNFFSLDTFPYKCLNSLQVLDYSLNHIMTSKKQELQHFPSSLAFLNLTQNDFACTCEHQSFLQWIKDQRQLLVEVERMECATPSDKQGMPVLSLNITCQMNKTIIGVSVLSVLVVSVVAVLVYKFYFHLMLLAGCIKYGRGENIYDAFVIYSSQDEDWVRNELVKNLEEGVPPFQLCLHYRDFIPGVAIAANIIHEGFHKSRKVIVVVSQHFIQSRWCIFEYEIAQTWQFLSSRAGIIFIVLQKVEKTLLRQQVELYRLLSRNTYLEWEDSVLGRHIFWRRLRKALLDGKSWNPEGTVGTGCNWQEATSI
protocol-text: Inhibition of TLR4 in human U937-3xkappaB-LUC cells assessed as inhibition of Aggregatibacter actinomycetemcomitans LPS-induced NF-kappaB activation preincubated for 30 mins followed by LPS stimulation and measured after 6 hrs post LPS challenge by Bright-Glo luciferase reporter gene assay relative to control

# cpd-smiles, system-tested, inhibition
measured = [
    ("Cc1ccc(S(=O)(=O)/C=C/C#N)cc1", "Toll-like receptor 4 (Homo sapiens) (UniProt O00206)", "99.3%"),
    ("CCC/C=C1\\OC(=O)c2cc(Oc3c(O)cc(O)cc3CCCCC)c(OC)cc21", "Toll-like receptor 4 (Homo sapiens) (UniProt O00206)", "Dose-dependent effect"),
    ("CCCCCc1c2c(cc(O)c1C(=O)O)OC(=O)c1c(cc(OC)cc1C(=O)CCCC)O2", "Toll-like receptor 4 (Homo sapiens) (UniProt O00206)", "Dose-dependent effect"),
    ("CCCCCc1c(Oc2cc(OC)cc(C(=O)CCCC)c2C(=O)OC)c(O)cc(O)c1C(=O)O", "Toll-like receptor 4 (Homo sapiens) (UniProt O00206)", "Dose-dependent effect"),
]

Entry source: ChEMBL document CHEMBL4261648
